Provenance of the data: PubChem BioAssay AID1963425

System: 323965-272-R-J2-PDC complex spheroid growth, % test/control;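 further: compound exposure lasted 7 days starting three days after spheroid seeding; 100% = DMSO vehicle control wells with viability set relative to vehicle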
Assay: Anticancer human tumor 323965-272-R-J2-PDC patient-derived pancreatic carcinoma cell line growth inhibition [Asc]
Conditions: second compound 0.0316 µM; first compound 0.00949 µM; hits give low values
I'd be grateful if you could share measured viability, T/C for these entries.
One number for each entry, in %.

Completed entries (count: 2):
molecule="Cc1nc(N2CCC3(CC2)COC(C)C3N)c(CO)nc1Sc1ccnc(N)c1Cl (stereo not drawn) + Cc1c(S(C)(=O)=O)c(-c2cc(F)cc(N3CCN(c4ccc(NS(=O)(=O)c5ccc(NC(CCN6CCC(C(=O)OCCCP(=O)(O)O)CC6)CSc6ccccc6)c(S(=O)(=O)C(F)(F)F)c5)cc4)CC3)c2)c(-c2ccc(Cl)cc2)n1C(C)C" tested_system="323965-272-R-J2-PDC complex spheroid growth, % test/control" measured_endpoint="viability, T/C" quantitative_result=92.9
molecule="NC(=O)C(=Cn1cnc(-c2cc(C(F)(F)F)cc(C(F)(F)F)c2)n1)c1cncnc1 + Cc1c(S(C)(=O)=O)c(-c2cc(F)cc(N3CCN(c4ccc(NS(=O)(=O)c5ccc(NC(CCN6CCC(C(=O)OCCCP(=O)(O)O)CC6)CSc6ccccc6)c(S(=O)(=O)C(F)(F)F)c5)cc4)CC3)c2)c(-c2ccc(Cl)cc2)n1C(C)C" tested_system="323965-272-R-J2-PDC complex spheroid growth, % test/control" measured_endpoint="viability, T/C" quantitative_result=115

Find the recorded viability, T/C belonging to CCN1C(C(=O)NC23CCC(C(=O)O)(CC2)CC3)C(c2cccc(Cl)c2F)C2(C(=O)Nc3cc(Cl)ccc32)C12CCCCC2 (stereo not drawn) + Cc1c(S(C)(=O)=O)c(-c2cc(F)cc(N3CCN(c4ccc(NS(=O)(=O)c5ccc(NC(CCN6CCC(C(=O)OCCCP(=O)(O)O)CC6)CSc6ccccc6)c(S(=O)(=O)C(F)(F)F)c5)cc4)CC3)c2)c(-c2ccc(Cl)cc2)n1C(C)C and report it.
117
